# EXPERIMENT DESCRIPTION: Stability in liver microsomes, dog
The following molecules are shown together with reported Trep Concentration 20 min values.
Please state the figure in µM; there is no need to write the unit.

Answered examples (3):
# MOLECULE, UNITS, ASSAY VALUE
rows = [
    ("CCCCCC(CCC1C(O)CC2Cc3c(cccc3OCC(=O)O)CC21)OC(=O)c1ccc(C(F)(F)F)cc1 (stereo not drawn)", "µM", 0.254),
    ("CCCCCC(CCC1C(O)CC2Cc3c(cccc3OCC(=O)O)CC21)OCCC (stereo not drawn)", "µM", 0.0334),
    ("CCCCCC(CCC1C(O)CC2Cc3c(cccc3OCC(=O)O)CC21)OC(=O)CCN (stereo not drawn)", "µM", 0.0295),
]

Inquiry: Given the molecule CCCCCC(CCC1C(O)CC2Cc3c(cccc3OCC(=O)O)CC21)OCOC(=O)C(C)(C)C (stereo not drawn) , write its reported Trep Concentration 20 min.
Reply text: 0.868

Inquiry: Given the molecule CCCCCC(CCC1C(O)CC2Cc3c(cccc3OCC(=O)O)CC21)OC(=O)CCC(=O)N1CCOCC1 (stereo not drawn) , write its reported Trep Concentration 20 min.
Reply text: 0.0751

Inquiry: Given the molecule CCCCCC(CCC1C(O)CC2Cc3c(cccc3OCC(=O)O)CC21)OC (stereo not drawn) , write its reported Trep Concentration 20 min.
Reply text: 0.00323

Inquiry: Given the molecule CCCCCC(CCC1C(O)CC2Cc3c(cccc3OCC(=O)O)CC21)OC(=O)NCC(=O)O (stereo not drawn) , write its reported Trep Concentration 20 min.
Reply text: 0

Inquiry: Given the molecule CCCCCC(CCC1C(O)CC2Cc3c(cccc3OCC(=O)O)CC21)OCCN1CCOCC1 (stereo not drawn) , write its reported Trep Concentration 20 min.
Reply text: 0.00398

Inquiry: Given the molecule CCCCCC(CCC1C(O)CC2Cc3c(cccc3OCC(=O)O)CC21)OC(=O)C1CCCN1 (stereo not drawn) , write its reported Trep Concentration 20 min.
Reply text: 0.309

Measured values drawn from patent US12491170B2 for this set.
